target: Hs_FPR2 (Homo sapiens, UniProt P25090)
Construct: expressed in transfected cells
Sequence (P25090 whole entry): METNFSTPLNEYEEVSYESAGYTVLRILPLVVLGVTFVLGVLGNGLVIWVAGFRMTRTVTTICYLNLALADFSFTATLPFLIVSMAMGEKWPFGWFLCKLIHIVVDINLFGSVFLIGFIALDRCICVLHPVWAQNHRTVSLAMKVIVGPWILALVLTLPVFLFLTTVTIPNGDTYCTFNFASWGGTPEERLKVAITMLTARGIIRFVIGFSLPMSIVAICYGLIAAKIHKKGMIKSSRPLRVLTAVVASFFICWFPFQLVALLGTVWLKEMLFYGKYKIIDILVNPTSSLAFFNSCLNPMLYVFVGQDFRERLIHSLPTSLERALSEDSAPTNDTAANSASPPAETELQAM
assay.name: BRET receptor-RLuc8 interaction with Arrestin 3-YFP
Type: cell-based
applied.conditions: Hs_FPR2-Rluc8 donor, Arrestin 3-YFP acceptor; read-out: EC50 arrestin recruitment, BRET
Entries and their measured EC50 follow.

- molecule: "COc1cc(F)c([C@@H]2CNC(=O)[C@H]2NC(=O)Nc2ccccc2)c(F)c1 [BMS-986235]"
  EC50 [nM]: 39.9
- molecule: "Cc1cccc(-c2oc(C)nc2C(=O)Nc2cnn(Cc3nc(C(C)(F)F)co3)n2)c1 [ACT-389949]"
  EC50 [nM]: 18
